Test system: Escherichia coli TOP10;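 further: peptides expressed intracellularly from a pBAD plasmid library in pooled LB shake-flask culture, induced with 0.3% L-arabinose, DNA abundance read by NGS, three biological replicates, DESeq2 with apeglm shrinkage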
Assay: shrunken log2 fold change of peptide-encoding DNA abundance (4.5 h post-induction vs induction); higher = less antimicrobial activity (less host growth inhibition)
Settings: time post-induction: 4.5 h; library: site-saturation at positions 5, 18, 19, 20
Rule: shrunken log2 fold change of -0.002 or more gives YES; anything lower gives NO.

Check out these entries, answers already filled in.
macromolecule.sequence	class.label
RRIRWRPPRLPRPRPRPGIFPRP	YES
RRIRYRPPRLPRPRPRPSDIPRP	NO
RRIRVRPPRLPRPRPRPPKLPRP	YES
RRIRHRPPRLPRPRPRPVTHPRP	NO
RRIRERPPRLPRPRPRPHTNPRP	NO
RRIRDRPPRLPRPRPRPPQDPRP	YES
RRIRVRPPRLPRPRPRPQGQPRP	YES
RRIRGRPPRLPRPRPRPGSEPRP	YES
RRIRDRPPRLPRPRPRPVCPPRP	NO
RRIRQRPPRLPRPRPRPFHDPRP	NO

Inquiry: API: above_or_equal(metric=shrunken log2 fold change, cutoff=-0.002) for item "RRIRCRPPRLPRPRPRPIGSPRP"
Reply text: NO

Inquiry: hey, is shrunken log2 fold change for this one >= -0.002? "RRIRKRPPRLPRPRPRPQYMPRP"
Reply text: YES

These data points were gathered from the supplement of paper PMC9112550.
